# credit: patent US20240270853A1

Molecular target: T1, Recombinant mouse DDR2 ECD-Fc (R&D systems, Cat. No. 7479-DR-050) (mouse, UniProt Q62371 22-399, biotinylated)
T1 construct: Bought protein; not shown: Fc part of the bought fusion protein, not described
T1 sequence: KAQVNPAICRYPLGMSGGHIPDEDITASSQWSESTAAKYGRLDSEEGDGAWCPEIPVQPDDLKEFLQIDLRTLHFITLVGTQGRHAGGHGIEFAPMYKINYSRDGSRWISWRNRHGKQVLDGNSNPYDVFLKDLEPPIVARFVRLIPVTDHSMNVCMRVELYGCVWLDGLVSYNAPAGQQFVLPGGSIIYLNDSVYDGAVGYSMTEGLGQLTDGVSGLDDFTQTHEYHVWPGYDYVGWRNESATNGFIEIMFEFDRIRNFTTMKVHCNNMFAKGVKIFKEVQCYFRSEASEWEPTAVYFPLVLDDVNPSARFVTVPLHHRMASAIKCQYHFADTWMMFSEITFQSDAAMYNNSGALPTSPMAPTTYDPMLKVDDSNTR
Assay: Octet tandem binning on captured mouse DDR2 ECD-Fc; competitor Ab1 (bound first) DAB0060
value_kind: Octet response of Ab2
Quick one: just the number, no unit, thanks!

| binder | Octet response of Ab2 |
| --- | --- |
| DAB0048 (antibody, V domains shown, Variable regions from immunized rabbits) VH: QSVEESGGRLITPGTPLTLTCTASGFSLSIYYMIWVRQAPGKGLEWIGYIWSGSTTDYASWAKGRFTISKTSTTVDLKITSPTTEDTATYFCARVYAGYGYGSDLWGQGTLVTVSS VL: AAVLTQTPSPVSAAVGGTVSISCQSSQSVYNNNWLAWYQQKPGQPPKLLIYSASTLASGVPSRFKGSGSGTQFTLTISDVQCDDAATYYCAGGYSTNSDKNAFGGGTKVEIK | 1.31 |
| DAB0094 (antibody, V domains shown, Variable regions from immunized rabbits) VH: QSVEESGGRLVTPGTPLTLTCTVSGFSLSSYSVAWVRQAPGKGLEWIGYISYSGSTYYASWVNGRFTISKTSTTVDLKMTSLTASDTATYFCARDPGYSRDLWGQGTLVTVSS VL: DVVMTQTPSSVSEPVGGTVTIKCQASQSIGSYLSWYQQKPGQPPKLLIYRASTLASGVSSRFKGSGSGTEFTLTINGLECADAAIYYCQSSYVGVSHGSFGGGTKVEIK | 0.0985 |

Okay, now this binder:
Inquiry: Entry DAB0069 (antibody, V domains shown, Variable regions from immunized rabbits) VH: QSLEESGGRLVTPGTPLTLTCTASGFSLSNYYMQWVRQAPGKGLEWIGIVYPGSSAYYANWAKGRFTISKTSTTVDLKMTSLTTEDTATYFCAGSSNSVYSFNLWGQGTLVTVSS VL: AYDMTQTPSSVSAAVGGTVTIKCQASESIYRSLAWYQQKPGQPPKLLIYSASTLTSGVSSRFKGSGSGTEFTLTISDLECADAGTYYCQQGGSFSNIVNTFGGGTKVEIK has what Octet response of Ab2?
Reply text: 1.35
